test system: Fibroblast; experiment: Multiplex assay against human fibroblast; type: toxicity, cell-based; conditions: 24 h, 10 µM, compound concentration 10 uM, replicate 2
Given measured Population Membrane Permeable-Phenotype (%), output Criterion met if it is greater than or equal to 4% and Criterion not met if not.

[[record]]
compound = "CC(C)OC(=O)N1CCC(Oc2ncnc3c2cnn3-c2ccc(S(C)(=O)=O)cc2F)CC1"
discrete_label = "Criterion not met"

[[record]]
compound = "COc1ccc(-c2ccc3ncc4c(c3c2)n(-c2ccc(N3CCNCC3)c(C(F)(F)F)c2)c(=O)n4C)cn1.O=C(O)/C=C\\C(=O)O [BGT-226]"
discrete_label = "Criterion met"

[[record]]
compound = "CC(C)Oc1ccccc1C(=O)Nc1ccccc1C(=O)Nc1cccc(S(=O)(=O)C(F)(F)F)c1"
discrete_label = "Criterion met"

[[record]]
compound = "CNC(=O)Nc1ccc2c(c1)[C@@]1(CC2)OC(=O)N(CC(=O)N(Cc2ccc(F)cc2)[C@@H](C)C(F)(F)F)C1=O [A-486]"
discrete_label = "Criterion met"

[[record]]
compound = "CCc1nn(CCCN2CCN(c3cccc(Cl)c3)CC2)c(=O)n1CCOc1ccccc1.Cl [NEFAZODONE HYDROCHLORIDE]"
discrete_label = "Criterion met"

[[record]]
compound = "O=c1cc(N2CCOCC2)oc2c(-c3cccc4c3sc3ccccc34)cccc12"
discrete_label = "Criterion met"


----------
test system: U2OS; experiment: Multiplex assay against U2OS; format: toxicity, cell-based; details: human, 24 h, 10 µM, compound concentration 10 uM, replicate 2
Given measured Population Pyknosed Nuclei (%), output YES if it is greater than or equal to 20% and NO if not.

[[record]]
molecule = "CNC(=O)Nc1ccc2c(c1)[C@@]1(CC2)OC(=O)N(CC(=O)N(Cc2ccc(F)cc2)[C@@H](C)C(F)(F)F)C1=O [A-486]"
discrete_label = "NO"

[[record]]
molecule = "COc1ccc(-c2ccc3ncc4c(c3c2)n(-c2ccc(N3CCNCC3)c(C(F)(F)F)c2)c(=O)n4C)cn1.O=C(O)/C=C\\C(=O)O [BGT-226]"
discrete_label = "NO"

[[record]]
molecule = "O=c1cc(N2CCOCC2)oc2c(-c3cccc4c3sc3ccccc34)cccc12"
discrete_label = "YES"

[[record]]
molecule = "CC1=C(C(=O)Nc2cc3cn[nH]c3cc2F)C(c2ccc(C(F)(F)F)cc2)CC(=O)N1 (stereo not drawn)"
discrete_label = "NO"

[[record]]
molecule = "COc1cc2ncn(-c3cc(OCc4ccccc4C(F)(F)F)c(C(N)=O)s3)c2cc1OC [GW843682X]"
discrete_label = "NO"

[[record]]
molecule = "COc1cc(Nc2nccc(-c3cnn4nc(OC)ccc34)n2)cc(C(F)(F)F)c1"
discrete_label = "NO"


----------
test system: Fibroblast; experiment: Multiplex assay against human fibroblast; format: toxicity, cell-based; conditions: 12 h, 1 µM, compound concentration 1 uM, replicate 2
reported.property: Population Mitotic Cells (%)

[[record]]
compound = "Cc1ccccc1C(c1ccccc1C)N1C2CCC1CC(O)(c1ccccc1)C2 (stereo not drawn)"
experimental_system = "Fibroblast"
unit_tag = "%"
observed = 50

[[record]]
compound = "CCOC(=O)Nc1cc(-c2ccc(C)c(NS(C)(=O)=O)c2)nn2c(C)nnc12"
experimental_system = "Fibroblast"
unit_tag = "%"
observed = 40

[[record]]
compound = "CCc1ccc(OCc2ccccc2C(=O)Nc2ccc3nc(C)cc(N)c3c2)cc1.Cl"
experimental_system = "Fibroblast"
unit_tag = "%"
observed = 28

[[record]]
compound = "CC(C)Oc1ccccc1C(=O)Nc1ccccc1C(=O)Nc1cccc(S(=O)(=O)C(F)(F)F)c1"
experimental_system = "Fibroblast"
unit_tag = "%"
observed = 66

[[record]]
compound = "CC1=C(C(=O)Nc2cc3cn[nH]c3cc2F)C(c2ccc(C(F)(F)F)cc2)CC(=O)N1 (stereo not drawn)"
experimental_system = "Fibroblast"
unit_tag = "%"
observed = 50

[[record]]
compound = "COc1cc(Nc2nccc(-c3cnn4nc(OC)ccc34)n2)cc(C(F)(F)F)c1"
experimental_system = "Fibroblast"
unit_tag = "%"
observed = 50

[[record]]
compound = "CC(C)OC(=O)N1CCC(Oc2ncnc3c2cnn3-c2ccc(S(C)(=O)=O)cc2F)CC1"
experimental_system = "Fibroblast"
unit_tag = "%"
observed = 66

[[record]]
compound = "Cl.O=C(O)c1cc(-c2ccc(C3CCNCC3)cc2)c2ccc(-c3ccc(C(F)(F)F)cc3)cc2c1"
experimental_system = "Fibroblast"
unit_tag = "%"
observed = 50

[[record]]
compound = "Cc1nc(N2CC[C@H](O)C2)ncc1-c1cc(C(F)(F)F)cc2[nH]ncc12"
experimental_system = "Fibroblast"
unit_tag = "%"
observed = 80

[[record]]
compound = "COc1ccc(-c2ccc3ncc4c(c3c2)n(-c2ccc(N3CCNCC3)c(C(F)(F)F)c2)c(=O)n4C)cn1.O=C(O)/C=C\\C(=O)O"
experimental_system = "Fibroblast"
unit_tag = "%"
observed = 18

[[record]]
compound = "COc1cc2ncn(-c3cc(OCc4ccccc4C(F)(F)F)c(C(N)=O)s3)c2cc1OC [GW843682X]"
experimental_system = "Fibroblast"
unit_tag = "%"
observed = 50

[[record]]
compound = "C=CC(=O)Nc1ccc2[nH]c(=O)n(C3CCN(Cc4ccc(-c5nc6cc[nH]c(=O)c6cc5-c5ccccc5)cc4)CC3)c2c1"
experimental_system = "Fibroblast"
unit_tag = "%"
observed = 66

[[record]]
compound = "CNC(=O)Nc1ccc2c(c1)[C@@]1(CC2)OC(=O)N(CC(=O)N(Cc2ccc(F)cc2)[C@@H](C)C(F)(F)F)C1=O"
experimental_system = "Fibroblast"
unit_tag = "%"
observed = 25

[[record]]
compound = "O=c1cc(N2CCOCC2)oc2c(-c3cccc4c3sc3ccccc34)cccc12"
experimental_system = "Fibroblast"
unit_tag = "%"
observed = 0

[[record]]
compound = "CCc1nn(CCCN2CCN(c3cccc(Cl)c3)CC2)c(=O)n1CCOc1ccccc1.Cl [NEFAZODONE HYDROCHLORIDE]"
experimental_system = "Fibroblast"
unit_tag = "%"
observed = 100

[[record]]
compound = "C=CC(=O)Nc1cccc(Sc2nc(Nc3ccc(N4CCN(C)CC4)cc3)ncc2Cl)c1"
experimental_system = "Fibroblast"
unit_tag = "%"
observed = 30

[[record]]
compound = "CN1CCN(Cc2ccc(Nc3ncc(Cl)c(Nc4ccccc4S(=O)(=O)N(C)C)n3)cc2)CC1"
experimental_system = "Fibroblast"
unit_tag = "%"
observed = 0

[[record]]
compound = "CC(C)c1noc(N2CCC(COc3ccc(-c4ccc(S(C)(=O)=O)cc4)nc3)CC2)n1"
experimental_system = "Fibroblast"
unit_tag = "%"
observed = 50

